- TARGET UNDER TEST: T1, AFP158/HLA-A*02:01 complex (human)
- T1 construct: flowed over the chip in SPR; also called AFP158 pro
- PROTOCOL: SPR, scFv captured, pMHC in flow;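 note: complex injected at several concentrations over crude scFv, association then running-buffer dissociation, KD estimated from kinetic on- and off-rate constants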
ENDPOINT NAME: pKd
One number for each entry, as −log10 of the molar value.

# count of solved cases: 8
For the binder LH98D (scFv, AS170036 VL1VH1 scFv mutein) scFv: QSALTQPRSVSGSPGQSVTISCAGTSSDVGSENYVSWYQQHPGKAPKLMIYQVNKRASGVPDRFSGSKSGNTASLTISGLQAEDEADYYCASYRSSDDNIVFGGGTKLTVLGGGGSGGGGSGGGGSEVQLVESGGGLVQPGGSLRLSCAASGFTFSSYAMSWVRQAPGKGLEWVSTINSGTGSPYYADSVKGRFTISRDNSKNTLYLQMNSLRAEDTAVYYCAKNFFDGSWFLGPPAMDYWGQGTLVTVSSHHHHHH , give its reported pKd.
5.96

Answer with the recorded pKd for the binder listed here: LD97H (scFv, AS170036 VL1VH1 scFv mutein) scFv: QSALTQPRSVSGSPGQSVTISCAGTSSDVGSENYVSWYQQHPGKAPKLMIYQVNKRASGVPDRFSGSKSGNTASLTISGLQAEDEADYYCASYRSSHHNIVFGGGTKLTVLGGGGSGGGGSGGGGSEVQLVESGGGLVQPGGSLRLSCAASGFTFSSYAMSWVRQAPGKGLEWVSTINSGTGSPYYADSVKGRFTISRDNSKNTLYLQMNSLRAEDTAVYYCAKNFFDGSWFLGPPAMDYWGQGTLVTVSSHHHHHH
6.38

Report pKd for LH98T (scFv, AS170036 VL1VH1 scFv mutein; also called AS170036 VL1VH1-VLH98T) scFv: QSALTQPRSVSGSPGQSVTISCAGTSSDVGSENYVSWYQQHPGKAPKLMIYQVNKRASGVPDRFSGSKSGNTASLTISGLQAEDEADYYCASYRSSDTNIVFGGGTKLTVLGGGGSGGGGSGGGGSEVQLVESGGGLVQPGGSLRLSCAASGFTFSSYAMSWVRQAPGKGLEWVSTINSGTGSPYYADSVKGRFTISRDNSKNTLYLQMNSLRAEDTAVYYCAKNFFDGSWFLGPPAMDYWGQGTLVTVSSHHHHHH
7.08

Tell me its pKd given LH98A (scFv, AS170036 VL1VH1 scFv mutein; also called AS170036 VL1VH1-VLH98A) scFv: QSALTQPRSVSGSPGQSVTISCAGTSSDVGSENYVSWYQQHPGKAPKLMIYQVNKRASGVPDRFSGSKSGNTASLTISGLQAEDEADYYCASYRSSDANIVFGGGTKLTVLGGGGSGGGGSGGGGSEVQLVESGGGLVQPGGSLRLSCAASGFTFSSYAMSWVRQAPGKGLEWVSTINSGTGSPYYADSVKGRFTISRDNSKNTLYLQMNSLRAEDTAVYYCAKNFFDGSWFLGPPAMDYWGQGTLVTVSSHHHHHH as the entry.
6.96

Determine its reported pKd: LY34G (scFv, AS170036 VL1VH1 scFv mutein) scFv: QSALTQPRSVSGSPGQSVTISCAGTSSDVGSENGVSWYQQHPGKAPKLMIYQVNKRASGVPDRFSGSKSGNTASLTISGLQAEDEADYYCASYRSSDHNIVFGGGTKLTVLGGGGSGGGGSGGGGSEVQLVESGGGLVQPGGSLRLSCAASGFTFSSYAMSWVRQAPGKGLEWVSTINSGTGSPYYADSVKGRFTISRDNSKNTLYLQMNSLRAEDTAVYYCAKNFFDGSWFLGPPAMDYWGQGTLVTVSSHHHHHH
5.77

Output measured pKd for this item: LE32H (scFv, AS170036 VL1VH1 scFv mutein) scFv: QSALTQPRSVSGSPGQSVTISCAGTSSDVGSHNYVSWYQQHPGKAPKLMIYQVNKRASGVPDRFSGSKSGNTASLTISGLQAEDEADYYCASYRSSDHNIVFGGGTKLTVLGGGGSGGGGSGGGGSEVQLVESGGGLVQPGGSLRLSCAASGFTFSSYAMSWVRQAPGKGLEWVSTINSGTGSPYYADSVKGRFTISRDNSKNTLYLQMNSLRAEDTAVYYCAKNFFDGSWFLGPPAMDYWGQGTLVTVSSHHHHHH
6.08

Tell me pKd reported for LD97M (scFv, AS170036 VL1VH1 scFv mutein) scFv: QSALTQPRSVSGSPGQSVTISCAGTSSDVGSENYVSWYQQHPGKAPKLMIYQVNKRASGVPDRFSGSKSGNTASLTISGLQAEDEADYYCASYRSSMHNIVFGGGTKLTVLGGGGSGGGGSGGGGSEVQLVESGGGLVQPGGSLRLSCAASGFTFSSYAMSWVRQAPGKGLEWVSTINSGTGSPYYADSVKGRFTISRDNSKNTLYLQMNSLRAEDTAVYYCAKNFFDGSWFLGPPAMDYWGQGTLVTVSSHHHHHH
6.23

Look up pKd of LH98Q (scFv, AS170036 VL1VH1 scFv mutein; also called AS170036 VL1VH1-VLH98Q) scFv: QSALTQPRSVSGSPGQSVTISCAGTSSDVGSENYVSWYQQHPGKAPKLMIYQVNKRASGVPDRFSGSKSGNTASLTISGLQAEDEADYYCASYRSSDQNIVFGGGTKLTVLGGGGSGGGGSGGGGSEVQLVESGGGLVQPGGSLRLSCAASGFTFSSYAMSWVRQAPGKGLEWVSTINSGTGSPYYADSVKGRFTISRDNSKNTLYLQMNSLRAEDTAVYYCAKNFFDGSWFLGPPAMDYWGQGTLVTVSSHHHHHH and report it.
7.12

Here's the next entry for you.
Provide pKd value for the following binder: LY93H (scFv, AS170036 VL1VH1 scFv mutein) scFv: QSALTQPRSVSGSPGQSVTISCAGTSSDVGSENYVSWYQQHPGKAPKLMIYQVNKRASGVPDRFSGSKSGNTASLTISGLQAEDEADYYCASHRSSDHNIVFGGGTKLTVLGGGGSGGGGSGGGGSEVQLVESGGGLVQPGGSLRLSCAASGFTFSSYAMSWVRQAPGKGLEWVSTINSGTGSPYYADSVKGRFTISRDNSKNTLYLQMNSLRAEDTAVYYCAKNFFDGSWFLGPPAMDYWGQGTLVTVSSHHHHHH
6.21
